- measured-on: Signal transducer and activator of transcription 3 (Homo sapiens)
- experiment-notes: Inhibition of IFNgamma-stimulated STAT3 (unknown origin) activation expressed in human HeLa cells at 50 uM after 6 hrs by luciferase reporter gene assay relative to control
- Type: cell-based
Hi there, I'd appreciate the recorded inhibition for every entry that follows.
Numbers only, in %.

Reference set, count: 5
{"smi": "COc1ccc(C(=O)Oc2cc3c(C)ccc(C(C)C)c3cc2C)cc1", "measured-on": "Signal transducer and activator of transcription 3 (Homo sapiens)", "readout-unit": "%", "readout-number": 2.5}
{"smi": "CC1=CC[C@H](C(C)C)c2cc(C)c(OC(=O)c3ccccc3)cc21", "measured-on": "Signal transducer and activator of transcription 3 (Homo sapiens)", "readout-unit": "%", "readout-number": 2.4}
{"smi": "Cc1cc2c(C(C)C)ccc(C)c2cc1OC(=O)c1cccc(Cl)c1", "measured-on": "Signal transducer and activator of transcription 3 (Homo sapiens)", "readout-unit": "%", "readout-number": 1.8}
{"smi": "CC1=CC[C@H](C(C)C)c2cc(C)c(OC(=O)c3cccc(C)c3)cc21", "measured-on": "Signal transducer and activator of transcription 3 (Homo sapiens)", "readout-unit": "%", "readout-number": 2.3}
{"smi": "CC1=CC[C@H](C(C)C)c2cc(C)c(OC(=O)c3cccc([N+](=O)[O-])c3)cc21", "measured-on": "Signal transducer and activator of transcription 3 (Homo sapiens)", "readout-unit": "%", "readout-number": 3.2}

Give inhibition for each of the items listed below.
1. CC1=CC[C@H](C(C)C)c2cc(C(=O)O)ccc21
2. Cc1cc2c(C(C)C)ccc(C)c2cc1OC(=O)c1ccc(Cl)cc1
3. Cc1cc2c(C(C)C)ccc(C)c2cc1OC(=O)c1ccc(C(F)(F)F)cc1
4. Cc1cc2c(C(C)C)ccc(C)c2cc1OC(=O)c1ccc([N+](=O)[O-])cc1
5. CC(C)[C@H]1CC[C@@](C)(O)c2ccc(C(=O)O)cc21

1: 2.9; 2: 1.3; 3: 0.9; 4: 1.6; 5: 3.8
